System: A549
Experiment: Cytotoxicity against human A549 cells after 48 hrs by MTT assay
Format: functional, cell-based
Conditions: A549, 48 h
pIC50: −log10 of the molar value.

>  <compound>
O=c1c(O)c(-c2ccccc2)oc2ccc(O)cc12

>  <targetOrSystem>
A549

>  <valueModifier>
=

>  <pIC50>
4.00

$$$$
>  <compound>
COc1ccc2c(c1)c(CC(=O)O)c(C)n2C(=O)c1ccc(Cl)cc1 [INDOMETHACIN]

>  <targetOrSystem>
A549

>  <valueModifier>
<

>  <pIC50>
4.00

$$$$
